Task for the reader: assign each of the following molecules its reported solubility at 24 h.
- test_description: physchem
- test_parameters: pH 2.2, aqueous buffer, kinetic from dmso stock, Solubility (pH 2.2)

INPUT: Would you kindly share the measured solubility at 24 h for COC[C@H]1N(c2cccc(-c3cccc(C(F)(F)F)c3OCc3cc(C)c4c(c3)CCN(C3CCOCC3)C4)n2)C[C@@H]2C[C@@]21C(=O)O ?
OUTPUT: 167 µg/mL

INPUT: Now consider COC[C@H]1N(c2cccc(-c3cccc(C)c3OCc3cc(C)c4c(c3)CCN(C3CCOC3)C4)n2)C[C@@H]2C[C@@]21C(=O)O (single isomer, unassigned) [Compound 51] and answer again.
OUTPUT: 110 µg/mL

INPUT: Then Cc1ccc(OCc2cc(C)c3c(c2C)CCN(C2CCOCC2)C3)c(-c2cccc(N3C[C@@H]4C[C@]4(C(=O)O)C3)n2)c1 ?
OUTPUT: 100 µg/mL

* * *

- study_system: human soluble guanylate cyclase alpha 1 and beta 1 subunits (sGC) (Homo sapiens (Human), UniProt Q02108+Q02153)
- Sequence (Q02108 whole entry partner): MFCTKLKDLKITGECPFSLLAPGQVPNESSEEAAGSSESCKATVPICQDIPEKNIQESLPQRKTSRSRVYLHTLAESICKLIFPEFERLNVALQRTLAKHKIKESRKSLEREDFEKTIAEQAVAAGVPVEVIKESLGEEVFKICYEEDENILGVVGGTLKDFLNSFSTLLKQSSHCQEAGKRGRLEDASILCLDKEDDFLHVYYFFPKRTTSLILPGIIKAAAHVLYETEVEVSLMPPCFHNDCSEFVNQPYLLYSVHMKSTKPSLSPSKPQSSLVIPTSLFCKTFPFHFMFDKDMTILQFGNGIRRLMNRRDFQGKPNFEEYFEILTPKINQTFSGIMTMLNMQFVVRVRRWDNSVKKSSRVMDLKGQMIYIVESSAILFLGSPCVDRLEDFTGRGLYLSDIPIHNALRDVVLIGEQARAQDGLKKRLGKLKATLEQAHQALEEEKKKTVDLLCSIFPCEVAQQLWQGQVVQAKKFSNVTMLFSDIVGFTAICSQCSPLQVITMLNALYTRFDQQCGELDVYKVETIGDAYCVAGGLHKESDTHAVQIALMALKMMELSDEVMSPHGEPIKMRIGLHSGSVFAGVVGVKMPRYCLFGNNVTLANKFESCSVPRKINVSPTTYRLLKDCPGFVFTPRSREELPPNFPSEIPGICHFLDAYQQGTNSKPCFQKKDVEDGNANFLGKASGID
- Sequence (Q02153 whole entry): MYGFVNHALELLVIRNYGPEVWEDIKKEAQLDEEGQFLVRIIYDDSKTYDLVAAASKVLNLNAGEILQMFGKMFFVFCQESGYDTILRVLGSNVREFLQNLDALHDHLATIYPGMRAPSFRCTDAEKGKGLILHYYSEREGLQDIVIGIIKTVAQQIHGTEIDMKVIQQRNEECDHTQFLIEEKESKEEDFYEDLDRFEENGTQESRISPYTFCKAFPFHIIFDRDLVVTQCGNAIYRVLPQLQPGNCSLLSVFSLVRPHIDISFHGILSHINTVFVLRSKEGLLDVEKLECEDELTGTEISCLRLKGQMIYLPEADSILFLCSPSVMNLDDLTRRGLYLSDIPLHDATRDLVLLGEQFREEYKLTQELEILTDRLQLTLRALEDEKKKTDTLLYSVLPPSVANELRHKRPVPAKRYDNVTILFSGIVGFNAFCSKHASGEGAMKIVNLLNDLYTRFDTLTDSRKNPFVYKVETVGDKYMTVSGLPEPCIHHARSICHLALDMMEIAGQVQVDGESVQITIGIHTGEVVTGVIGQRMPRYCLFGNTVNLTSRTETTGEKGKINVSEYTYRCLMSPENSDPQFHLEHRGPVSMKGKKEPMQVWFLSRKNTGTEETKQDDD
- test_description: sGC cellular activator assay (cGMP, HTRF), in the presence and absence of 50% human serum
- test_parameters: CHO cells stably expressing human sGC alpha 1/beta 1, preincubated with 40 microM ODQ; cGMP by HTRF; Table 2 does not state whether with or without 50% human serum
For each entry below, report its pEC50 value.
// pEC50 is dimensionless: -log10 of concentration (M)

INPUT: Quick one: pEC50 for COC[C@H]1N(c2cccc(-c3cccc(C)c3OCc3cc(C#N)c4c(c3)CCN(C3CCOCC3)C4)n2)C[C@@H]2C[C@@]21C(=O)O [Compound 217] ?
OUTPUT: 7.40

INPUT: Another: Cc1cccc(-c2cccc(N3C[C@@H]4C[C@]4(C(=O)O)C3)n2)c1OCc1cc(C#N)c2c(c1)CCN(C1CCOCC1)C2 [Compound 30]
OUTPUT: 8.10

INPUT: Now this one: COC[C@H]1N(c2nc(-c3cc(C)ccc3OCc3ccc4c(c3)CCN(C3CCOCC3)C4)cs2)C[C@@H]2C[C@@]21C(=O)O [Compound 163]
OUTPUT: 6.46

INPUT: Now the compound CCc1cc(COc2c(C)cccc2-c2cccc(N3C[C@@H]4C[C@]4(C(=O)O)[C@H]3COC)n2)cc2c1CN(C1COC1)CC2 [Compound 54]
OUTPUT: 7.80

INPUT: Now give it for CO[C@@H]1CN(c2nc(-c3cccc(Cl)c3OCc3ccc4c(c3)[C@@H](C)CN(C3CCOCC3)CC4)cs2)CC[C@@H]1C(=O)O [Compound 332] too.
OUTPUT: 7.82

INPUT: # iterate: COC[C@H]1N(c2nc(-c3cc(C)ccc3OCc3ccc4c(c3C)CCN(C3CCOCC3)C4)cs2)C[C@@H]2C[C@@]21C(=O)O [Compound 164]
OUTPUT: 6.97

INPUT: Follow-up item: Cc1c(COc2ccccc2-c2cccc(N3CC[C@@]4(C(=O)O)C[C@H]4C3)n2)ccc2c1CCN([C@H]1CCCOC1)C2 [Compound 11]
OUTPUT: 8.40

INPUT: // repeat for CCc1cc(COc2c(C)cccc2-c2cccc(N3C[C@@H]4C[C@]4(C(=O)O)[C@H]3COC)n2)cc2c1CN(C1CCOC1)CC2 (stereo partly shown) [Compound 55] and report
OUTPUT: 8.00

INPUT: // query: O=C(O)[C@@]12CCN(c3cccc(-c4ccccc4OCc4ccc5c(c4)CCN(C4COC4)C5)n3)C[C@@H]1C2 [Compound 2]
OUTPUT: 7.96

INPUT: Queued: CO[C@H]1CN(c2nc(-c3cccc(Cl)c3OCc3ccc4c(c3)[C@@H](C)CN(C3CCOCC3)CC4)cs2)CC[C@H]1C(=O)O [Compound 319]
OUTPUT: 9.00

INPUT: Here is the next compound: Cc1cccc(-c2csc(N3CC[C@@]4(C(=O)O)C[C@H]4C3)n2)c1OCc1ccc2c(c1C)CCN(C1CCOC1)CC2 (stereo partly shown) [Compound 106]
OUTPUT: 8.30

INPUT: How about this compound: CO[C@H]1CN(c2nc(-c3cc(C)ccc3OCc3ccc4c(c3C)CCN(C3CCOCC3)C4)cs2)CC[C@H]1C(=O)O [Compound 178]
OUTPUT: 7.85

INPUT: Next entry: Cc1cccc(-c2cccc(N3C[C@@H]4C[C@]4(C(=O)O)C3)n2)c1OCc1cc(C#N)c2c(c1)CCN(C1COC1)C2 [Compound 29]
OUTPUT: 7.74

Where do these numbers come from? They come from patent US9353090B2.
